Items are presented alongside their recorded pKd.
Target: CYP2A13 (Homo sapiens)
Construct: truncation of the non-catalytic N-terminal transmembrane helix and addition of a C-terminal 4× histidine tag; 4xHis (C); made in house; host or cells: E. coli
Test: Spectral shift ligand binding titration (cuvette method) with purified CYP2A13dH
Conditions: Table 1, average Kd; read-out: 2A13 Av. Kd
Description: To date, virtually all attempts to characterize full-length mammalian cytochromes P450 have been restricted by the production of only small (nanomolar) amounts of protein. […] Cytochrome P4502A13dH was expressed and purified as previously described (J. Biol. Chem. (2007), 282(23)17306-17313). […] The fractions containing protein with absorbance at 415 nm were pooled, diluted 5-fold with Buffer C (5 mM potassium phosphate, pH 7.4, 20% glycerol, 4.8 mM Cymal-5), and loaded onto HiTrap CM-FF column. […]
// field semantics: pKd = negative decimal log of concentration (mol/L)

Worked examples, 5 molecules total:
- entry-smiles: "Cc1ccccc1CN1CCOCC1"
  assay-target: "CYP2A13 (Homo sapiens)"
  pKd: 4.71
- entry-smiles: "Brc1ccccc1CN1CCOCC1"
  assay-target: "CYP2A13 (Homo sapiens)"
  pKd: 5.15
- entry-smiles: "Clc1ccccc1CN1CCSCC1"
  assay-target: "CYP2A13 (Homo sapiens)"
  pKd: 5.00
- entry-smiles: "Fc1ccccc1CN1CCOCC1"
  assay-target: "CYP2A13 (Homo sapiens)"
  pKd: 4.14
- entry-smiles: "Clc1cccc(CN2CCOCC2)c1Cl"
  assay-target: "CYP2A13 (Homo sapiens)"
  pKd: 4.55

Clc1cccc(Cl)c1CN1CCOCC1 yielded pKd of 5.72

Clc1ccc(CN2CCOCC2)c(Cl)c1 yielded pKd of 4.46

====

Target: CYP2A13 (Homo sapiens)
Construct: truncation of the non-catalytic N-terminal transmembrane helix and addition of a C-terminal 4× histidine tag; 4xHis (C); made in house; host or cells: E. coli
Sequence (Q16696 with tags, fused parts or gaps limits assumed): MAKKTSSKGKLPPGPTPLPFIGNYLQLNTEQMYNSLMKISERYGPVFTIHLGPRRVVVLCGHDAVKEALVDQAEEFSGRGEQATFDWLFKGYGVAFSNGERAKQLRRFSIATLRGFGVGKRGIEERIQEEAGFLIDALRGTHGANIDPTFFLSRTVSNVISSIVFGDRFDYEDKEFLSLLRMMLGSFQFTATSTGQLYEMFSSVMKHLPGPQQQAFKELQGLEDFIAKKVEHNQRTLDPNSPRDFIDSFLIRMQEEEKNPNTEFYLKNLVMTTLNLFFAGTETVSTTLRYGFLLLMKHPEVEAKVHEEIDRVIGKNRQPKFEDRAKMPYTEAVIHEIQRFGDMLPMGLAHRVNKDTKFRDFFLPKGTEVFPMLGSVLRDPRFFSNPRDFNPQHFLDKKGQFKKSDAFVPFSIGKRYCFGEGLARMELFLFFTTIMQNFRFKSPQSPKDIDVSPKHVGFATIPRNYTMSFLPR
Assay: Spectral shift ligand binding titration (cuvette method) with purified CYP2A13dH
Details: Table 2, unit inferred; read-out: 2A13 Kd
Where a name gives a salt, the structure may show the parent alone.
measurement-name: Kd
Kindly report the value followed by its unit.

C1CN(C2C3CC4CC(C3)CC2C4)CCO1 (stereo not shown) [Compound 31, 4-(2-adamantyl)morpholine hydrochloride] yielded Kd of 28.8 µM

====

Target: CYP2A13 (Homo sapiens, UniProt Q16696)
Construct: truncation of the non-catalytic N-terminal transmembrane helix and addition of a C-terminal 4× histidine tag; 4xHis (C); made in house; host or cells: E. coli
Test: Spectral shift ligand binding titration (cuvette method) with purified CYP2A13dH
Conditions: (CYP2A6 Kd)/(CYP2A13 Kd); higher numbers are more selective
measurement-name: Selectivity 2A6 Kd/2A13 Kd
API note: the answer field is a bare number with no unit suffix.

- entry-smiles: "Clc1ccccc1CN1CCSCC1"
  Selectivity 2A6 Kd/2A13 Kd: 15.5
- entry-smiles: "Clc1cccc(CN2CCOCC2)c1Cl"
  Selectivity 2A6 Kd/2A13 Kd: 27
- entry-smiles: "Clc1ccc(CN2CCOCC2)c(Cl)c1"
  Selectivity 2A6 Kd/2A13 Kd: 5.66

Next, consider the following compound.
Record for Clc1cccc(Cl)c1CN1CCOCC1 under target or system CYP2A13 (Homo sapiens, UniProt Q16696): Selectivity 2A6 Kd/2A13 Kd reported as 291

====

Target: CYP2A6 (Homo sapiens, UniProt P11509)
Construct: truncation of the non-catalytic N-terminal transmembrane helix and addition of a C-terminal 4× histidine tag; 4xHis (C); made in house; host or cells: E. coli
Sequence (P11509 with tags, fused parts or gaps limits assumed): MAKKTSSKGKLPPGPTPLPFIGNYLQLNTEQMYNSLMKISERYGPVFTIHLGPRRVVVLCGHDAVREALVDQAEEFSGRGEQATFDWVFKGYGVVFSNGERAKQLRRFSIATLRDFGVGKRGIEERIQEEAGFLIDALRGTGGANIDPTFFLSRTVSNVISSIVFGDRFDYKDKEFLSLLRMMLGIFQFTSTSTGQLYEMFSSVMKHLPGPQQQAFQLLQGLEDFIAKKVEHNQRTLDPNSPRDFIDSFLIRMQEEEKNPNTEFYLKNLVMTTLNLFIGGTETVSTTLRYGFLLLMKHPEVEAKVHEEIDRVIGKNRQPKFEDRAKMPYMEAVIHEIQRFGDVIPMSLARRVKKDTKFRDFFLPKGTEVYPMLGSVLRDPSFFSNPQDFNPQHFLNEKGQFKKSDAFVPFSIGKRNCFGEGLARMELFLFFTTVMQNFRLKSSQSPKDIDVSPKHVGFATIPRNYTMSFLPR
Test: Spectral shift ligand binding titration with purified CYP2A6dH
Conditions: Table 1, average Kd; read-out: 2A6 Av. Kd
measurement-name: Kd (µM)
Enter your answer as a number in µM; do not include the unit.

Worked examples, 3 molecules total:
- entry-smiles: "Clc1ccccc1CN1CCSCC1"
  Kd (µM): 155
- entry-smiles: "Clc1cccc(Cl)c1CN1CCOCC1"
  Kd (µM): 553
- entry-smiles: "Clc1ccc(CN2CCOCC2)c(Cl)c1"
  Kd (µM): 198

Next, consider the following molecule.
Clc1cccc(CN2CCOCC2)c1Cl yielded Kd of 788

====

Biological target: CYP2A13 (Homo sapiens)
Construct: truncation of the non-catalytic N-terminal transmembrane helix and addition of a C-terminal 4× histidine tag; 4xHis (C); made in house; host or cells: E. coli
Test: Spectral shift ligand binding titration (cuvette method) with purified CYP2A13dH
Conditions: multiple titrations; read-out: average Kd for CYP2A13
measurement-name: Kd (µM)
Enter your answer as a number in µM; do not include the unit.

- entry-smiles: "Clc1ccccc1CN1CCOCC1"
  Kd (µM): 7.3

Next, consider the following compound.
Cc1ccccc1CN1CCOCC1 yielded Kd of 19.3

====

Molecular target: CYP2A13 (Homo sapiens, UniProt Q16696)
Construct: truncation of the non-catalytic N-terminal transmembrane helix and addition of a C-terminal 4× histidine tag; 4xHis (C); made in house; host or cells: E. coli
Sequence (Q16696 with tags, fused parts or gaps limits assumed): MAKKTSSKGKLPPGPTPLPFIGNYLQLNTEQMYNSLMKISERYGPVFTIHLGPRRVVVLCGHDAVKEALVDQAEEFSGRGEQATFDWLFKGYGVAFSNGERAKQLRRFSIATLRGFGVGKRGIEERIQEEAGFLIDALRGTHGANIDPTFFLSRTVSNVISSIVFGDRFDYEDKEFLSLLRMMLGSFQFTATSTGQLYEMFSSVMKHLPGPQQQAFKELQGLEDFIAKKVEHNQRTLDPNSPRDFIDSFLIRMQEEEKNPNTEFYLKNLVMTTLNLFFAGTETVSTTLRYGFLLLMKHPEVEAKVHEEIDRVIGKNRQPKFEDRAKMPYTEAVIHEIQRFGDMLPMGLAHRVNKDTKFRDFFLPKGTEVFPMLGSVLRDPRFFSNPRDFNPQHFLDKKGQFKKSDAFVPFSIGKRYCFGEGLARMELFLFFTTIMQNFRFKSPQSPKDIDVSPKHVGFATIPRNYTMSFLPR
Test: Spectral shift ligand binding titration (cuvette method) with purified CYP2A13dH
Details: initial characterisation of the hits; read-out: initial Kd values, CYP2A13
measurement-name: pKd
// field semantics: pKd = negative decimal log of concentration (mol/L)

- molecule: "Cc1ccccc1CN1CCOCC1 [Compound 3, 4-(2-methylbenzyl)morpholine]"
  pKd: 5.40

Next, consider the following molecule.
Record for Clc1ccccc1CN1CCOCC1 [Compound 1, 4-(2-chlorobenzyl)morpholine] under target or system CYP2A13 (Homo sapiens, UniProt Q16696): pKd reported as 5.74

====

Target: CYP2A13 (Homo sapiens)
Construct: truncation of the non-catalytic N-terminal transmembrane helix and addition of a C-terminal 4× histidine tag; 4xHis (C); made in house; host or cells: E. coli
Experiment: Spectral shift ligand binding titration (cuvette method) with purified CYP2A13dH
Details: (CYP2A6 Kd)/(CYP2A13 Kd); higher numbers are more selective
measurement-name: Selectivity 2A6 Kd/2A13 Kd

- entry-smiles: "Brc1ccccc1CN1CCOCC1"
  Selectivity 2A6 Kd/2A13 Kd: "high"
- entry-smiles: "Cc1ccccc1CN1CCOCC1"
  Selectivity 2A6 Kd/2A13 Kd: "high"
- entry-smiles: "Fc1ccccc1CN1CCOCC1"
  Selectivity 2A6 Kd/2A13 Kd: "high"
- entry-smiles: "Clc1ccccc1CN1CCOCC1"
  Selectivity 2A6 Kd/2A13 Kd: "high"

Next, consider the following compound.
Fc1cccc(Cl)c1CN1CCOCC1 yielded Selectivity 2A6 Kd/2A13 Kd of high

Every entry's value here was drawn from patent US8962624B2.
